For each entry below, report its MIC value.
# System: Staphylococcus aureus S13E
# Type: cell-based
The reply should be a number in µg/mL, with the unit left off.

Any idea what its MIC is? The molecule is CNC(CC(C)C)C(=O)NC1C(=O)NC(CC(N)=O)C(=O)NC2C(=O)NC3C(=O)NC(C(=O)NC(C(=O)O)c4cc(O)cc(O)c4-c4cc3ccc4O)C(OC3CC(C)(N)C(O)C(C)O3)c3ccc(c(Cl)c3)Oc3cc2cc(c3OC2OC(CO)C(O)C(O)C2OC2CC(C)(NCc3c4ccccc4c(C)c4ccccc34)C(O)C(C)O2)Oc2ccc(cc2Cl)C1O (stereo not drawn)
1

Same read-out for CN[C@H](CC(C)C)C(=O)N[C@H]1C(=O)N[C@@H](CC(N)=O)C(=O)N[C@H]2C(=O)N[C@H]3C(=O)N[C@H](C(=O)N[C@H](C(=O)O)c4cc(O)cc(O)c4-c4cc3ccc4O)[C@H](O[C@H]3C[C@](C)(N)[C@@H](O)[C@H](C)O3)c3ccc(c(Cl)c3)Oc3cc2cc(c3O[C@@H]2O[C@H](CO)[C@@H](O)[C@H](O)[C@H]2O[C@H]2C[C@](C)(NCc3ccc(Oc4ccc(C)cc4)cc3)[C@@H](O)[C@H](C)O2)Oc2ccc(cc2Cl)[C@H]1O ?
2

Field entry: CNC(CC(C)C)C(=O)NC1C(=O)NC(CC(N)=O)C(=O)NC2C(=O)NC3C(=O)NC(C(=O)NC(C(=O)O)c4cc(O)cc(O)c4-c4cc3ccc4O)C(OC3CC(C)(N)C(O)C(C)O3)c3ccc(c(Cl)c3)Oc3cc2cc(c3OC2OC(CO)C(O)C(O)C2OC2CC(C)(NCc3cc(OCc4ccccc4)ccc3OC)C(O)C(C)O2)Oc2ccc(cc2Cl)C1O (stereo not drawn)
0.5

----------
Give MIC for every item shown.
# Test system: Staphylococcus aureus SA1199B
# Type: cell-based
Numbers only; they are read as µg/mL.

Look up MIC: CCN(CC)CCOc1ccc(CNC2(C)CC(OC3C(Oc4c5cc6cc4Oc4ccc(cc4Cl)C(OC4CC(C)(N)C(O)C(C)O4)C4NC(=O)C(NC(=O)C6NC(=O)C(CC(N)=O)NC(=O)C(NC(=O)C(CC(C)C)NC)C(O)c6ccc(c(Cl)c6)O5)c5ccc(O)c(c5)-c5c(O)cc(O)cc5C(C(=O)O)NC4=O)OC(CO)C(O)C3O)OC(C)C2O)cc1 (centres unmarked) [Compound 83]
1

Let us now turn to CNC(CC(C)C)C(=O)NC1C(=O)NC(CC(N)=O)C(=O)NC2C(=O)NC3C(=O)NC(C(=O)NC(C(=O)O)c4cc(O)cc(O)c4-c4cc3ccc4O)C(OC3CC(C)(N)C(O)C(C)O3)c3ccc(c(Cl)c3)Oc3cc2cc(c3OC2OC(CO)C(O)C(O)C2OC2CC(C)(NCCCCC3CCCCC3)C(O)C(C)O2)Oc2ccc(cc2Cl)C1O (centres unmarked) [Compound 205]
0.5

----------
# Test system: Staphylococcus aureus 447
# protocol: broth micro-dilution MIC
# Assay type: cell-based
test_readout: MIC (µg/mL)
Value expressed in µg/mL; do not type the unit.

Any idea what its MIC is? The compound is CNC(CC(C)C)C(=O)NC1C(=O)NC(CC(N)=O)C(=O)NC2C(=O)NC3C(=O)NC(C(=O)NC(C(=O)O)c4cc(O)cc(O)c4-c4cc3ccc4O)C(OC3CC(C)(NCc4ccc(SC)cc4)C(O)C(C)O3)c3ccc(c(Cl)c3)Oc3cc2cc(c3OC2OC(CO)C(O)C(O)C2OC2CC(C)(NCc3ccc(SC)cc3)C(O)C(C)O2)Oc2ccc(cc2Cl)C1O (centres unmarked) [Compound 278]
2

----------
# System: vancomycin-susceptible enterococci
# protocol: broth micro-dilution, mean geometric MIC
# Format: cell-based, Enterococcus faecium and Enterococcus faecalis
# recorded_conditions: enterococci, 24-hour incubation
Provide the reported mean geometric MIC, Vancomycin Sensitive Strains of each item.
A number alone suffices; assume µg/mL.

Sample CNC(CC(C)C)C(=O)NC1C(=O)NC(CC(N)=O)C(=O)NC2C(=O)NC3C(=O)NC(C(=O)NC(C(=O)O)c4cc(O)cc(O)c4-c4cc3ccc4O)C(OC3CC(C)(N)C(O)C(C)O3)c3ccc(cc3)Oc3cc2cc(c3OC2OC(CO)C(O)C(O)C2OC2CC(C)(NCc3ccc(Oc4ccccc4)cc3)C(O)C(C)O2)Oc2ccc(cc2)C1O (centres unmarked) [Compound 184] — what was its mean geometric MIC, Vancomycin Sensitive Strains?
0.570

Record: CNC(CC(C)C)C(=O)NC1C(=O)NC(CC(N)=O)C(=O)NC2C(=O)NC3C(=O)NC(C(=O)NC(C(=O)O)c4cc(O)cc(O)c4-c4cc3ccc4O)C(OC3CC(C)(N)C(O)C(C)O3)c3ccc(c(Cl)c3)Oc3cc2cc(c3OC2OC(CO)C(O)C(O)C2OC2CC(C)(NCC3CC=CCC3)C(O)C(C)O2)Oc2ccc(cc2Cl)C1O (centres unmarked) [Compound 47]
0.57

----------
Give measured MIC for each item. Keep answers brief.
# Test system: Staphylococcus aureus SA1199B
# Type: cell-based
Dear colleague, please return just the value in µg/mL, with no unit written.

Requested field: MIC. Item: CNC(CC(C)C)C(=O)NC1C(=O)NC(CC(N)=O)C(=O)NC2C(=O)NC3C(=O)NC(C(=O)NC(C(=O)O)c4cc(O)cc(O)c4-c4cc3ccc4O)C(OC3CC(C)(N)C(O)C(C)O3)c3ccc(c(Cl)c3)Oc3cc2cc(c3OC2OC(CO)C(O)C(O)C2OC2CC(C)(NCc3ccc(OCc4ccccc4)c(OCc4ccccc4)c3)C(O)C(C)O2)Oc2ccc(cc2Cl)C1O (stereo not drawn)
2

Let us now turn to CNC(CC(C)C)C(=O)NC1C(=O)NC(CC(N)=O)C(=O)NC2C(=O)NC3C(=O)NC(C(=O)NC(C(=O)O)c4cc(O)cc(O)c4-c4cc3ccc4O)C(OC3CC(C)(N)C(O)C(C)O3)c3ccc(c(Cl)c3)Oc3cc2cc(c3OC2OC(CO)C(O)C(O)C2OC2CC(C)(NCc3cccc(OCC4CCCCC4)c3)C(O)C(C)O2)Oc2ccc(cc2Cl)C1O (stereo not drawn)
0.5

----------
# Tested on: Staphylococcus aureus 447
# protocol: broth micro-dilution MIC
# Assay type: cell-based
# Description: The MIC's were determined using a standard broth micro-dilution assay.
test_readout: MIC (µg/mL)
Express your answer in µg/mL, writing the number without its unit.

Item CNC(CC(C)C)C(=O)NC1C(=O)NC(CC(N)=O)C(=O)NC2C(=O)NC3C(=O)NC(C(=O)NC(C(=O)O)c4cc(O)cc(O)c4-c4cc3ccc4O)C(OC3CC(C)(N)C(O)C(C)O3)c3ccc(c(Cl)c3)Oc3cc2cc(c3OC2OC(CO)C(O)C(O)C2OC2CC(C)(NCc3ccc(N(C)c4ccccc4)cc3)C(O)C(C)O2)Oc2ccc(cc2Cl)C1O (centres unmarked) has what recorded MIC?
0.5

Also, CNC(CC(C)C)C(=O)NC1C(=O)NC(CC(N)=O)C(=O)NC2C(=O)NC3C(=O)NC(C(=O)NC(C(=O)O)c4cc(O)cc(O)c4-c4cc3ccc4O)C(OC3CC(C)(N)C(O)C(C)O3)c3ccc(c(Cl)c3)Oc3cc2cc(c3OC2OC(CO)C(O)C(O)C2OC2CC(C)(NCc3ccc(OC(C)=O)cc3)C(O)C(C)O2)Oc2ccc(cc2Cl)C1O (centres unmarked) please.
2

----------
# Tested on: vancomycin-susceptible enterococci
# protocol: broth micro-dilution, mean geometric MIC
# Type: cell-based, Enterococcus faecium and Enterococcus faecalis
# recorded_conditions: enterococci, 24-hour incubation
Please go through the items and note down their mean geometric MIC, Vancomycin Sensitive Strains.
The answer is to be given in µg/mL; state only the numeric part.

Which mean geometric MIC, Vancomycin Sensitive Strains value is on record for CNC(CC(C)C)C(=O)NC1C(=O)NC(CC(N)=O)C(=O)NC2C(=O)NC3C(=O)NC(C(=O)NC(C(=O)O)c4cc(O)cc(O)c4-c4cc3ccc4O)C(OC3CC(C)(N)C(O)C(C)O3)c3ccc(c(Cl)c3)Oc3cc2cc(c3OC2OC(CO)C(O)C(O)C2OC2CC(C)(NCc3cncc(-c4ccccc4)c3)C(O)C(C)O2)Oc2ccc(cc2Cl)C1O (stereo not drawn) ?
0.14

Quick one: CNC(CC(C)C)C(=O)NC1C(=O)NC(CC(N)=O)C(=O)NC2C(=O)NC3C(=O)NC(C(=O)NC(C(=O)O)c4cc(O)cc(O)c4-c4cc3ccc4O)C(OC3CC(C)(N)C(O)C(C)O3)c3ccc(c(Cl)c3)Oc3cc2cc(c3OC2OC(CO)C(O)C(O)C2OC2CC(C)(NCc3ccc(N4CCN(C)CC4)cc3)C(O)C(C)O2)Oc2ccc(cc2Cl)C1O (stereo not drawn)
1.5

Check CNC(CC(C)C)C(=O)NC1C(=O)NC(CC(N)=O)C(=O)NC2C(=O)NC3C(=O)NC(C(=O)NC(C(=O)O)c4cc(O)cc(O)c4-c4cc3ccc4O)C(OC3CC(C)(N)C(O)C(C)O3)c3ccc(c(Cl)c3)Oc3cc2cc(c3OC2OC(CO)C(O)C(O)C2OC2CC(C)(NCc3ccc(Oc4ccc(OC)cc4)cc3)C(O)C(C)O2)Oc2ccc(cc2Cl)C1O (stereo not drawn) too.
0.095

Measured values drawn from patent US5840684A for this set.
